Test: Solubility in phosphate buffer at pH 7.4
Format: physicochemical
Would you mind telling me the reported solubility of each entry?
Provide only the numeric value, understood in µg/mL.

Q: Input CC(C)(C)[C@H]1CC[C@@H](C(=O)N2CCCC2)N1C(=O)CCCc1ccccc1 , output reported solubility.
Ans: 900

Q: Give recorded solubility. O=C(NCc1ccccc1)C1=CCCC1C(=O)N1CCCC1 (stereo not given)
Ans: 3000

* * *

Experiment: Solubility in phosphate buffer at pH 7.4
Assay type: physicochemical
MEASURED ENDPOINT: solubility

Q: Please give the documented solubility of CC(C)(C)[C@H]1CC[C@@H](C(=O)N2CCCC2)N1C(=O)CCCc1cccnc1
Ans: > 6000 µg/mL

Q: Output measured solubility for this item: O=C(NCc1cccnc1)C1=CCCC1C(=O)N1CCCC1 (stereo not drawn)
Ans: > 6000 µg/mL

Q: Determine its reported solubility: O=C([C@@H]1CCCN1C(=O)CCCc1ccccc1)N1CCCC1
Ans: > 6000 µg/mL
